# tested_system: T1, extracellular domain (ECD) of human IGSF11 (VSIG3), biotinylated (human, UniProt Q5DX21 23-241, biotinylated (site not stated))
# T1 construct: also called human IGSF11 protein
# T1 sequence: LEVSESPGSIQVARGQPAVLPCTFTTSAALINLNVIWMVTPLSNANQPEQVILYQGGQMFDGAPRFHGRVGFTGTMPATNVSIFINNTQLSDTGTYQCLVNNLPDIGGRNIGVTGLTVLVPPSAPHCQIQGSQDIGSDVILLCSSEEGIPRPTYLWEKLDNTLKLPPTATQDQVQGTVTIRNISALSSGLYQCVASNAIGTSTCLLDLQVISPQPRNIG
# assay_method_text: ELISA, scFv; RFU grade (*** >1.0, ** 0.5-1.0, * 0.1-0.5)
endpoint: relative fluorescent units (RFU), ELISA

Recorded relative fluorescent units (RFU), ELISA, per entry:
>  <binder>
A-006 (scFv format) (scFv, V domains shown, scFv) VH: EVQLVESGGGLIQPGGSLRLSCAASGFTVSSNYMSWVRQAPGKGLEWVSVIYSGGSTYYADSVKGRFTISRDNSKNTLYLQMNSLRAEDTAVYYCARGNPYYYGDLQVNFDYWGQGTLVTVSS VL: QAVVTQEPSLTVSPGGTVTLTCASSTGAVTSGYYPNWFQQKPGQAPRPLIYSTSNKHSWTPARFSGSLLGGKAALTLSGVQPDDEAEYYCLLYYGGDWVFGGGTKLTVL

>  <value_reported>
0.5 to 1 rfu

$$$$
>  <binder>
A-026 (scFv format) (scFv, V domains shown, scFv) VH: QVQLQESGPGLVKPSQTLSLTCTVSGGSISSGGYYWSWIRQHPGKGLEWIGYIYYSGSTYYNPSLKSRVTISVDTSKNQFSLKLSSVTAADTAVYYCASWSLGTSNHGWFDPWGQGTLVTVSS VL: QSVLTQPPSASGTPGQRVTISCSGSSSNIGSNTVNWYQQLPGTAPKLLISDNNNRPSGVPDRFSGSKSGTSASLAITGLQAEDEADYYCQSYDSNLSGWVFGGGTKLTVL

>  <value_reported>
> 1 rfu

$$$$

We next turn to a different binder, shown below.
Which value of relative fluorescent units (RFU), ELISA has been reported for A-013 (scFv format) (scFv, V domains shown, scFv) VH: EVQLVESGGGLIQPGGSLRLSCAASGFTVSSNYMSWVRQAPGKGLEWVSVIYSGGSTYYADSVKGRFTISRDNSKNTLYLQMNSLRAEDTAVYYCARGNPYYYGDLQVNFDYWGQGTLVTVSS VL: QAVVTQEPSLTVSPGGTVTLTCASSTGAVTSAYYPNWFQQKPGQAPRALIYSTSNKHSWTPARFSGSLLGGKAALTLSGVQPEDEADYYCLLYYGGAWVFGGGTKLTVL in the records?
0.5 to 1 rfu
